conditions: in ethyl acetate, 303.2 K
METRIC NAME: solubility (mole fraction)

{"LINE NOTATION": "COc1cc2oc(=O)cc(-c3ccccc3)c2cc1O", "METRIC NAME": "solubility (mole fraction)", "RESULT NUMBER": 0.00204}
{"LINE NOTATION": "O=c1cc(-c2ccccc2)c2cc(O)c(O)cc2o1", "METRIC NAME": "solubility (mole fraction)", "RESULT NUMBER": 0.00101}

###

Entries and their solubility (mole fraction) values follow.
conditions: in n-hexane, 308.2 K
METRIC NAME: solubility (mole fraction)

{"LINE NOTATION": "O=c1cc(-c2ccccc2)c2cc(O)c(O)cc2o1", "METRIC NAME": "solubility (mole fraction)", "RESULT NUMBER": "1.35e-07"}
{"LINE NOTATION": "COc1cc2oc(=O)cc(-c3ccccc3)c2cc1O", "METRIC NAME": "solubility (mole fraction)", "RESULT NUMBER": "5.36e-06"}

###

details: in chloroform, 303.2 K
Items are presented alongside their recorded solubility (mole fraction).

{"LINE NOTATION": "O=c1cc(-c2ccccc2)c2cc(O)c(O)cc2o1", "solubility (mole fraction)": "1.04e-07"}
{"LINE NOTATION": "COc1cc2oc(=O)cc(-c3ccccc3)c2cc1O", "solubility (mole fraction)": 0.00457}

###

# solubility (mole fraction) annotations
details: in acetone, 299.2 K

{"LINE NOTATION": "COc1cc2oc(=O)cc(-c3ccccc3)c2cc1O", "solubility (mole fraction)": 0.0027}
{"LINE NOTATION": "O=c1cc(-c2ccccc2)c2cc(O)c(O)cc2o1", "solubility (mole fraction)": 0.00246}

###

Some compounds, each annotated with its measured solubility (mole fraction).
details: in methanol, 299.2 K

{"LINE NOTATION": "O=c1cc(-c2ccccc2)c2cc(O)c(O)cc2o1", "solubility (mole fraction)": 0.00129}
{"LINE NOTATION": "COc1cc2oc(=O)cc(-c3ccccc3)c2cc1O", "solubility (mole fraction)": 0.000646}

###

settings: in ethyl acetate, 299.2 K
METRIC NAME: solubility (mole fraction)

{"LINE NOTATION": "COc1cc2oc(=O)cc(-c3ccccc3)c2cc1O", "METRIC NAME": "solubility (mole fraction)", "RESULT NUMBER": 0.00193}
{"LINE NOTATION": "O=c1cc(-c2ccccc2)c2cc(O)c(O)cc2o1", "METRIC NAME": "solubility (mole fraction)", "RESULT NUMBER": 0.000928}

###

conditions: in water, 283.2 K
// solubility (mole fraction) lookup, one value per entry

{"LINE NOTATION": "COc1cc2oc(=O)cc(-c3ccccc3)c2cc1O", "solubility (mole fraction)": "1.03e-07"}
{"LINE NOTATION": "O=c1cc(-c2ccccc2)c2cc(O)c(O)cc2o1", "solubility (mole fraction)": "7.94e-08"}

###

conditions: in ethyl acetate, 293.2 K
Listing: solubility (mole fraction) of selected compounds
METRIC NAME: solubility (mole fraction)

{"LINE NOTATION": "O=c1cc(-c2ccccc2)c2cc(O)c(O)cc2o1", "RESULT NUMBER": 0.000616}
{"LINE NOTATION": "COc1cc2oc(=O)cc(-c3ccccc3)c2cc1O", "RESULT NUMBER": 0.00165}

###

conditions: in methanol, 288.2 K
METRIC NAME: solubility (mole fraction)

{"LINE NOTATION": "O=c1cc(-c2ccccc2)c2cc(O)c(O)cc2o1", "METRIC NAME": "solubility (mole fraction)", "RESULT": 0.00102}
{"LINE NOTATION": "COc1cc2oc(=O)cc(-c3ccccc3)c2cc1O", "METRIC NAME": "solubility (mole fraction)", "RESULT": 0.000516}

###

conditions: in acetone, 288.2 K

{"LINE NOTATION": "O=c1cc(-c2ccccc2)c2cc(O)c(O)cc2o1", "solubility (mole fraction)": 0.00228}
{"LINE NOTATION": "COc1cc2oc(=O)cc(-c3ccccc3)c2cc1O", "solubility (mole fraction)": 0.00237}

###

Recorded solubility (mole fraction) values for a group of compounds are listed next.
details: in n-hexane, 283.2 K

{"LINE NOTATION": "O=c1cc(-c2ccccc2)c2cc(O)c(O)cc2o1", "solubility (mole fraction)": "2.04e-08"}
{"LINE NOTATION": "COc1cc2oc(=O)cc(-c3ccccc3)c2cc1O", "solubility (mole fraction)": "3.88e-06"}

###

details: in chloroform, 283.2 K

{"LINE NOTATION": "COc1cc2oc(=O)cc(-c3ccccc3)c2cc1O", "solubility (mole fraction)": 0.00313}
{"LINE NOTATION": "O=c1cc(-c2ccccc2)c2cc(O)c(O)cc2o1", "solubility (mole fraction)": "3.75e-08"}

###

solubility (mole fraction) values by entry
conditions: in methanol, 283.2 K

{"LINE NOTATION": "O=c1cc(-c2ccccc2)c2cc(O)c(O)cc2o1", "solubility (mole fraction)": 0.000986}
{"LINE NOTATION": "COc1cc2oc(=O)cc(-c3ccccc3)c2cc1O", "solubility (mole fraction)": 0.000504}

###

Measured solubility (mole fraction), listed per entry.
settings: in water, 293.2 K
METRIC NAME: solubility (mole fraction)

{"LINE NOTATION": "O=c1cc(-c2ccccc2)c2cc(O)c(O)cc2o1", "RESULT NUMBER": "1.92e-07"}
{"LINE NOTATION": "COc1cc2oc(=O)cc(-c3ccccc3)c2cc1O", "RESULT NUMBER": "1.12e-07"}

###

settings: in methanol, 293.2 K
METRIC NAME: solubility (mole fraction)

{"LINE NOTATION": "O=c1cc(-c2ccccc2)c2cc(O)c(O)cc2o1", "RESULT NUMBER": 0.0011}
{"LINE NOTATION": "COc1cc2oc(=O)cc(-c3ccccc3)c2cc1O", "RESULT NUMBER": 0.000542}

###

details: in chloroform, 299.2 K

{"LINE NOTATION": "O=c1cc(-c2ccccc2)c2cc(O)c(O)cc2o1", "solubility (mole fraction)": "7.09e-08"}
{"LINE NOTATION": "COc1cc2oc(=O)cc(-c3ccccc3)c2cc1O", "solubility (mole fraction)": 0.00414}

###

conditions: in water, 303.2 K
METRIC NAME: solubility (mole fraction)

{"LINE NOTATION": "COc1cc2oc(=O)cc(-c3ccccc3)c2cc1O", "RESULT NUMBER": "1.44e-07"}
{"LINE NOTATION": "O=c1cc(-c2ccccc2)c2cc(O)c(O)cc2o1", "RESULT NUMBER": "2.51e-07"}

###

conditions: in acetone, 283.2 K
Listed compounds paired with reported solubility (mole fraction)

{"LINE NOTATION": "O=c1cc(-c2ccccc2)c2cc(O)c(O)cc2o1", "solubility (mole fraction)": 0.0022}
{"LINE NOTATION": "COc1cc2oc(=O)cc(-c3ccccc3)c2cc1O", "solubility (mole fraction)": 0.00229}

###

conditions: in ethyl acetate, 283.2 K
Entries and their solubility (mole fraction)

{"LINE NOTATION": "COc1cc2oc(=O)cc(-c3ccccc3)c2cc1O", "solubility (mole fraction)": 0.0014}
{"LINE NOTATION": "O=c1cc(-c2ccccc2)c2cc(O)c(O)cc2o1", "solubility (mole fraction)": 0.000553}

###

conditions: in water, 288.2 K
Listed next: entries and their corresponding solubility (mole fraction).

{"LINE NOTATION": "O=c1cc(-c2ccccc2)c2cc(O)c(O)cc2o1", "solubility (mole fraction)": "1.39e-07"}
{"LINE NOTATION": "COc1cc2oc(=O)cc(-c3ccccc3)c2cc1O", "solubility (mole fraction)": "1.11e-07"}

###

details: in n-hexane, 293.2 K
Below, each of the compounds is paired with its reported solubility (mole fraction) value.
METRIC NAME: solubility (mole fraction)

{"LINE NOTATION": "COc1cc2oc(=O)cc(-c3ccccc3)c2cc1O", "METRIC NAME": "solubility (mole fraction)", "RESULT NUMBER": "4.09e-06"}
{"LINE NOTATION": "O=c1cc(-c2ccccc2)c2cc(O)c(O)cc2o1", "METRIC NAME": "solubility (mole fraction)", "RESULT NUMBER": "5.6e-08"}

###

settings: in chloroform, 308.2 K
METRIC NAME: solubility (mole fraction)

{"LINE NOTATION": "COc1cc2oc(=O)cc(-c3ccccc3)c2cc1O", "METRIC NAME": "solubility (mole fraction)", "RESULT NUMBER": 0.0059}
{"LINE NOTATION": "O=c1cc(-c2ccccc2)c2cc(O)c(O)cc2o1", "METRIC NAME": "solubility (mole fraction)", "RESULT NUMBER": "1.71e-07"}
